Just for reference, PubChem BioAssay (NCI) is where these values come from.

Test system: SNB-75 CNS
test method notes: NCI tumour cell line growth inhibition, 48 h
measure: TGI

Study these solved cases before continuing.
>  <molecule>
CC1(C)NC(C)(C)/C(=N\O)C(=NO)/C1=N/O

>  <experimental system>
SNB-75 CNS

>  <reported>
> 100 µM

$$$$
>  <molecule>
COC(=O)C1=C(C)C(=O)[C@H]2C(C(=O)OC)CCCC[C@@H]12 (stereo partly specified)

>  <experimental system>
SNB-75 CNS

>  <reported>
> 100 µM

$$$$
>  <molecule>
O=C(O)C1=CN=C(C(=O)O)NN1

>  <experimental system>
SNB-75 CNS

>  <reported>
> 100 µM

$$$$
>  <molecule>
C/C=C1\C(=O)O[C@H]2C/C(C)=C/CC/C(C)=C/CC[C@@]3(C)O[C@@H]3C[C@@H]12

>  <experimental system>
SNB-75 CNS

>  <reported>
> 100 µM

$$$$
>  <molecule>
Oc1ccc(-c2nc(=S)[nH][nH]2)cc1

>  <experimental system>
SNB-75 CNS

>  <reported>
> 100 µM

$$$$

Now consider a different molecule.
input: Request the reported TGI associated with `c1ccc2c(c1)CCN2CCN1CCc2ccccc21`
output: > 10 µM

* * *

Tested on: LOX IMVI melanoma
test method notes: NCI tumour cell line growth inhibition, 48 h
Readings of TGI for the listed molecules

>  <molecule>
Cc1ccc(S(=O)(=O)NC(C(=O)O)C(C)C)cc1 (stereo not drawn)

>  <experimental system>
LOX IMVI melanoma

>  <TGI>
> 100 µM

$$$$

input: Give LOX IMVI melanoma TGI for `CCCc1[nH]nc(C(N)=O)c1N=NN(C)C`
output: > 100 µM

input: Give LOX IMVI melanoma TGI for `C/C(=N/OC(=O)c1cccc2c(=O)c3ccccc3[nH]c12)[C@H]1CC[C@H]2[C@@H]3CCC4=C/C(=N/OC(=O)c5cccc6c(=O)c7ccccc7[nH]c56)CC[C@]4(C)[C@H]3CC[C@]12C`
output: 26.7 µM

input: Give LOX IMVI melanoma TGI for `CCOC(=O)/C(=C\NCc1ccc2c(c1)OCO2)c1nc2ccccc2[nH]1`
output: > 100 µM

input: Give LOX IMVI melanoma TGI for `COC(=O)/C1=C/c2c([nH]c3ccccc23)/C(C(=O)OC)=C\c2c1[nH]c1ccccc21`
output: > 50 µM

* * *

Tested on: NCI-H23 lung
test method notes: NCI tumour cell line growth inhibition, 48 h
measure: TGI

>  <molecule>
CC1(C)c2ccccc2C(C)(C)C(C(=O)Nc2ccccc2)C1C(=O)O (centres undefined)

>  <TGI>
> 100 µM

$$$$
>  <molecule>
CC1(C)CN=C(Nc2ccc(F)cc2)S1

>  <TGI>
> 100 µM

$$$$
>  <molecule>
Cc1nn(C(=O)c2ccccc2O)c2c1C(c1ccco1)SC(N)=N2 (centres undefined)

>  <TGI>
> 10 µM

$$$$
>  <molecule>
Cc1nc(N)nn1C1OCC(O)C(O)C1O (centres undefined)

>  <TGI>
> 100 µM

$$$$
>  <molecule>
O=Cc1cn(Cc2ccc(Cl)cc2)c2ccccc12

>  <TGI>
> 100 µM

$$$$
>  <molecule>
Oc1ccc(-c2nc(=S)[nH][nH]2)cc1

>  <TGI>
> 100 µM

$$$$
>  <molecule>
COC(=O)C1=C(C(=O)OC)C2(CCCCCC2=O)OC1=O (centres undefined)

>  <TGI>
> 100 µM

$$$$
>  <molecule>
N#CC1(Cc2ccccc2[N+](=O)[O-])c2ccccc2C2C(N1C(=O)c1ccccc1)C2(Cl)Cl (centres undefined)

>  <TGI>
> 100 µM

$$$$

input: Request the reported TGI associated with `CC1=C2C(=O)c3ccccc3C(=O)[C@H]2C[C@@H](N2CCCC2=O)O1`
output: 57.1 µM

input: Request the reported TGI associated with `CN(C)CCNc1ccc(NCC[N+](C)(C)Cc2ccc([N+](=O)[O-])cc2)c2c1C(=O)c1ccccc1C2=O`
output: > 25 µM

input: Request the reported TGI associated with `CCOC(=O)/C(=C\NCc1ccc2c(c1)OCO2)c1nc2ccccc2[nH]1`
output: > 100 µM

input: Request the reported TGI associated with `CC(=O)N1CCC(Nc2cc(C(=O)NC[C@H](O)CN3CCc4ccccc4C3)ncn2)CC1`
output: > 100 µM

input: Request the reported TGI associated with `COC1(OC)CC(CO)(CNc2nc(N)nc(Cl)c2C=O)C1`
output: 48.5 µM

input: Request the reported TGI associated with `COc1ccc(Nc2nc3cc(C(F)(F)F)ccc3nc2C(=O)O)cc1`
output: 30 µM

* * *

Tested on: LOX IMVI melanoma
test method notes: NCI tumour cell line growth inhibition, 48 h
measure: TGI

>  <compound>
CCCNC(=S)N=Nc1c(O)[nH]c2ccccc12

>  <TGI>
> 100 µM

$$$$
>  <compound>
O=C(O)CCCNS(=O)(=O)c1ccccc1

>  <TGI>
> 100 µM

$$$$

input: Request the reported TGI associated with `ClC1=C(Cl)C(Cl)(Cl)SS1`
output: > 10 µM

input: Request the reported TGI associated with CC1(C)C2CCC13C(=O)C1OC3(C2)C2C(=O)N(c3ccccc3)C(=O)C12 (centres undefined)
output: > 100 µM

* * *

System: BT-549 breast
test method notes: NCI tumour cell line growth inhibition, 48 h
Readings of TGI for the listed compounds
Numeric only. Scale: µM

Study these solved cases before continuing.
>  <smi>
CCOC(=O)c1ccc(NC(=O)O/N=C(/Cl)CC)cc1

>  <TGI, µM>
59.5

$$$$
>  <smi>
Cc1nc2c(o1)C(=O)c1ccccc1C2=Nc1ccccc1

>  <TGI, µM>
3.13

$$$$

Now consider a different compound.
input: Request the reported TGI associated with `COc1cc2c[n+](C)c3c4cc(OC)c(OC)cc4c(OCc4ccccc4)cc3c2cc1OC`
output: 1.71

* * *

System: M14 melanoma
test method notes: NCI tumour cell line growth inhibition, 48 h
Where a SMILES comes first, the peptide text is derived from it. [ ]: non-standard residue; d: D form. Ac5c = NC1(C(=O)O)CCCC1
measure: TGI

Study these solved cases before continuing.
>  <compound>
S=C1N=C2C(=N1)n1c3c(c4ccccc41)CCCC23 (stereo not given)

>  <reported>
> 100 µM

$$$$
>  <compound>
CCCN(CCC)c1ccc(CO)c(Cl)c1

>  <reported>
97.4 µM

$$$$
>  <compound>
COc1cc2c[n+](C)c3c4cc(OC)c(OC)cc4c(OCc4ccccc4)cc3c2cc1OC

>  <reported>
4.2 µM

$$$$
>  <compound>
COC(=O)C1(NC(=O)C(C)NC(=O)C(CCCCN)NC(=O)C(CC(C)C)NC(C)=O)CCCC1 (stereo not given) (Ac-LKA[Ac5c]-OMe; configuration not given here)

>  <reported>
> 100 µM

$$$$
>  <compound>
CCOC(=O)N1Cc2ccoc2C1

>  <reported>
> 100 µM

$$$$
>  <compound>
OCCCNCc1ccncc1

>  <reported>
> 100 µM

$$$$

input: Give M14 melanoma TGI for `C=CCOC(=O)C[C@H](NC(=O)[C@H](Cc1ccc(O)cc1)NCC(F)(F)F)C(=O)OCC=C`
output: > 100 µM

input: Give M14 melanoma TGI for CC(C)=CC(=O)OC1C(CO)OC(Oc2cc(O)c3c(=O)cc(-c4ccc(O)c(O)c4)oc3c2)C(OC2OC(C)C(O)C(O)C2O)C1O (stereo not given)
output: > 100 µM

input: Give M14 melanoma TGI for CCOc1ccc2nc(NC(=O)C(=O)C(C#N)CC(C)(C)C=O)sc2c1 (stereo not given)
output: > 100 µM

input: Give M14 melanoma TGI for `COc1cccc2c(Nc3ccc(S(=O)(=O)N=C(N)N)cc3)c3ccc([N+](=O)[O-])cc3nc12`
output: > 100 µM

* * *

System: NCI-H460 lung
test method notes: NCI tumour cell line growth inhibition, 48 h
measure: TGI (µM)
Numeric only. Scale: µM

>  <smi>
CCOC(=O)/C=C\c1c(Cl)n(-c2ccccc2)c(=O)n(-c2ccccc2)c1=O

>  <measurement unit>
µM

>  <TGI>
34.1

$$$$

input: Request the reported TGI associated with `CN1CCN(CC(=O)N2c3ccccc3Sc3cc4ccccc4cc32)CC1`
output: 32.8

input: Request the reported TGI associated with `COc1cc(/C=C2\N=C(c3ccccc3)N(c3nc4ccc(Sc5ccccc5)cc4[nH]3)C2=O)ccc1O`
output: 50

input: Request the reported TGI associated with `Oc1cccc(-c2nc(-c3n[nH]c(=S)n3-c3ccccc3)cc3c2[nH]c2ccccc23)c1`
output: 9.5

* * *

Tested on: OVCAR-3 ovarian
test method notes: NCI tumour cell line growth inhibition, 48 h
measure: TGI

Study these solved cases before continuing.
>  <compound>
Cc1cc(C2CC(O)C(CO)O2)c(Cl)cc1Cl (stereo not drawn)

>  <measure>
TGI

>  <reported>
> 100 µM

$$$$
>  <compound>
CN(/N=C(\C(=O)O)c1ccccc1)C1=NCCN1

>  <measure>
TGI

>  <reported>
> 100 µM

$$$$
>  <compound>
Cc1nc(N)nn1C1OCC(O)C(O)C1O (stereo not drawn)

>  <measure>
TGI

>  <reported>
> 100 µM

$$$$
>  <compound>
CCOC(=O)/C(SC#N)=C(/N)N1CCCC1

>  <measure>
TGI

>  <reported>
> 100 µM

$$$$

input: Request the reported TGI associated with `COc1ccc(Oc2ccc3cc4c(cc3c2O)OCO4)c2cc(C)oc12`
output: > 100 µM

input: Request the reported TGI associated with c1ccc(C(NC2CCCCC2NCCNC2CCCCC2NC(c2ccccc2)(c2ccccc2)c2ccccc2)(c2ccccc2)c2ccccc2)cc1 (stereo not drawn)
output: > 100 µM
